# Selectivity Index (SI) values HeLa per entry
system: HeLa (cervical carcinoma); assay: Cytotoxic activity assay (MTT); format: cell-based, human; conditions: SI = IC50 normal cell (MRC-5)/ IC50 cancer cell
Respond numerically, and do not add a unit to the figure.

C=C1CC[C@H]2C(C)(C)CCC[C@]2(C)[C@H]1CC/C(C)=C/C(=O)NCCCCCCCC [Compound 4d]    1.0
C=C1CC[C@H]2C(C)(C)CCC[C@]2(C)[C@H]1CC/C(C)=C/C(=O)NOC [Compound 4i]    1.0
C=C1CC[C@H]2C(C)(C)CCC[C@]2(C)[C@H]1CC/C(C)=C/C(=O)N(C)C [Compound 4m]    1.0
C=C1CC[C@H]2C(C)(C)CCC[C@]2(C)[C@H]1CC/C(C)=C/C(=O)NC [Compound 4a]    1.2
C=C1CC[C@H]2C(C)(C)CCC[C@]2(C)[C@H]1CC/C(C)=C/C(=O)NCc1ccccn1 [Compound 4g]    1.0

Q. State its Selectivity Index (SI) values HeLa for this compound: C=C1CC[C@H]2C(C)(C)CCC[C@]2(C)[C@H]1CC/C(C)=C/C(=O)NN [Compound 4k]
A. 1.2

Q. State its Selectivity Index (SI) values HeLa for this compound: C=C1CC[C@H]2C(C)(C)CCC[C@]2(C)[C@H]1CC/C(C)=C/C(=O)Nc1ccccc1 [Compound 4e]
A. 1.3

* * *

tested on: HepG2 (hepatocellular carcinoma); assay: Cytotoxic activity assay (MTT); type: cell-based, human; settings: SI = IC50 normal cell (MRC-5)/ IC50 cancer cell
# Selectivity Index (SI) values HepG2 per entry
Respond numerically, and do not add a unit to the figure.

Some solved entries appear below for comparison.
C=C1CCC2C(C)(C)CCCC2(C)C1CCC(C)=CC(=O)NCC(=O)OCC (centres unmarked)    1.0
C=C1CC[C@H]2C(C)(C)CCC[C@]2(C)[C@H]1CC/C(C)=C/C(=O)NCCc1c[nH]c2ccccc12    1.2
C=C1CCC2C(C)(C)CCCC2(C)C1CCC(C)=CCO (centres unmarked) [Compound 2, anticopalol]    1.0
C=C1CC[C@H]2C(C)(C)CCC[C@]2(C)[C@H]1CC/C(C)=C/C(=O)NCCCCCCCC    1.0

Q. State its Selectivity Index (SI) values HepG2 for this compound: "C=C1CC[C@H]2C(C)(C)CCC[C@]2(C)[C@H]1CC/C(C)=C/C(=O)NCC(=O)OC"
A. 0.9

Q. State its Selectivity Index (SI) values HepG2 for this compound: "C=C1CC[C@H]2C(C)(C)CCC[C@]2(C)[C@H]1CC/C(C)=C/C(=O)NCc1ccccc1"
A. 1.0

Q. State its Selectivity Index (SI) values HepG2 for this compound: C=C1CC[C@H]2C(C)(C)CCC[C@]2(C)[C@H]1CC/C(C)=C/C(=O)NOC1CCCCO1 (some centres unmarked)
A. 0.5

Q. State its Selectivity Index (SI) values HepG2 for this compound: "C=C1CC[C@H]2C(C)(C)CCC[C@]2(C)[C@H]1CC/C(C)=C/C(=O)NC"
A. 0.8

* * *

test system: MDA-MB-231 (triple-negative breast cancer); assay: Cytotoxic activity assay (MTT); assay type: cell-based, human; conditions: Homo sapiens, MDA-MB-231; 48 h exposure, MTT; read-out: Cell lines, IC50 (μM) MDA-MB-231
# IC50 per entry
Report the figure in µM without appending any unit label.

C=C1CC[C@H]2C(C)(C)CCC[C@]2(C)[C@H]1CC/C(C)=C/C(=O)N(C)OC    38.8
COc1cccc2c1C(=O)c1c(O)c3c(c(O)c1C2=O)C[C@@](O)(C(=O)CO)C[C@@H]3O[C@H]1C[C@H](N)[C@H](O)[C@H](C)O1 [DOX, doxorubicin, reference compound]    2.7

Q. State its IC50 for this molecule: "C=C1CC[C@H]2C(C)(C)CCC[C@]2(C)[C@H]1CC/C(C)=C/C(=O)NC"
A. 29.9

Q. State its IC50 for this molecule: "C=C1CC[C@H]2C(C)(C)CCC[C@]2(C)[C@H]1CC/C(C)=C/C(=O)NN"
A. 98.5

* * *

# Selectivity Index (SI) values T47-D per entry
tested on: T-47D (hormone-dependent breast cancer); assay: Cytotoxic activity assay (MTT); type: cell-based, human; settings: SI = IC50 normal cell (MRC-5)/ IC50 cancer cell
Respond numerically, and do not add a unit to the figure.

Q. State its Selectivity Index (SI) values T47-D for this compound: "C=C1CC[C@H]2C(C)(C)CCC[C@]2(C)[C@H]1CC/C(C)=C/C(=O)NC"
A. 0.8

Q. State its Selectivity Index (SI) values T47-D for this compound: "C=C1CC[C@H]2C(C)(C)CCC[C@]2(C)[C@H]1CC/C(C)=C/C(=O)NOC"
A. 1.3

Q. State its Selectivity Index (SI) values T47-D for this compound: COc1cccc2c1C(=O)c1c(O)c3c(c(O)c1C2=O)C[C@@](O)(C(=O)CO)C[C@@H]3O[C@H]1C[C@H](N)[C@H](O)[C@H](C)O1 [DOX, doxorubicin, reference compound]
A. 1.6

Q. State its Selectivity Index (SI) values T47-D for this compound: "C=C1CC[C@H]2C(C)(C)CCC[C@]2(C)[C@H]1CC/C(C)=C/C(=O)NO"
A. 1.0

Q. State its Selectivity Index (SI) values T47-D for this compound: C=C1CCC2C(C)(C)CCCC2(C)C1CCC(C)=CC(=O)NCC(=O)OCC (stereo not shown)
A. 0.7

Q. State its Selectivity Index (SI) values T47-D for this compound: "C=C1CC[C@H]2C(C)(C)CCC[C@]2(C)[C@H]1CC/C(C)=C/C(=O)NCc1ccccn1"
A. 0.8

Q. State its Selectivity Index (SI) values T47-D for this compound: "C=CCNC(=O)/C=C(\C)CC[C@H]1C(=C)CC[C@H]2C(C)(C)CCC[C@]12C"
A. 1.0

* * *

# IC50 per entry
tested on: HuCCA-1 (cholangiocarcinoma derived from a patient); assay: Cytotoxic activity assay (MTT); type: cell-based, human; conditions: Homo sapiens, HuCC-A1; 48 h exposure, MTT; read-out: Cell lines, IC50 (μM) HuCCA-1
Report the figure in µM without appending any unit label.

Some solved entries appear below for comparison.
C=C1CCC2C(C)(C)CCCC2(C)C1CCC(C)=CCO (centres unmarked) [Compound 2, anticopalol]    51.5
C=C1CC[C@H]2C(C)(C)CCC[C@]2(C)[C@H]1CC/C(C)=C/C(=O)NCCc1c[nH]c2ccccc12    42.4
C=C1CC[C@H]2C(C)(C)CCC[C@]2(C)[C@H]1CC/C(C)=C/C(=O)NCc1ccccn1    46.2

Now look at this entry.
Q. Report value: IC50, system: HuCCA-1 (cholangiocarcinoma derived from a patient), compound: "C=C1CC[C@H]2C(C)(C)CCC[C@]2(C)[C@H]1CC/C(C)=C/C(=O)N(C)OC"
A. 54.3

* * *

# IC50 per entry
system: A549 (lung adenocarcinoma); assay: Cytotoxic activity assay (MTT); assay type: cell-based, human; settings: Homo sapiens, A549; 48 h exposure, MTT; read-out: Cell lines, IC50 (μM) A549
Report the figure in µM without appending any unit label.

COc1cccc2c1C(=O)c1c(O)c3c(c(O)c1C2=O)C[C@@](O)(C(=O)CO)C[C@@H]3O[C@H]1C[C@H](N)[C@H](O)[C@H](C)O1 [DOX, doxorubicin, reference compound]    0.38
C=C1CC[C@H]2C(C)(C)CCC[C@]2(C)[C@H]1CC/C(C)=C/C(=O)NOC [Compound 4i]    45.7
C=C1CCC2C(C)(C)CCC[C@]2(C)[C@H]1CC/C(C)=C/C=O (stereo partly shown) [Compound 3]    142

Q. State its IC50 for this molecule: C=C1CC[C@H]2C(C)(C)CCC[C@]2(C)[C@H]1CC/C(C)=C/C(=O)NCc1ccccn1 [Compound 4g]
A. 38.2

* * *

test system: MDA-MB-231 (triple-negative breast cancer); test: Cytotoxic activity assay (MTT); type: cell-based, human; conditions: Homo sapiens, MDA-MB-231; 48 h exposure, MTT; read-out: Cell lines, IC50 (μM) MDA-MB-231
assayEndpoint: IC50

Q. State its IC50 for this compound: "C=C1CC[C@H]2C(C)(C)CCC[C@]2(C)[C@H]1CC/C(C)=C/C(=O)Nc1ccccc1"
A. > 120 µM

Q. State its IC50 for this compound: "C=C1CC[C@H]2C(C)(C)CCC[C@]2(C)[C@H]1CC/C(C)=C/C(=O)NCCCCCCCC"
A. > 120 µM

Q. State its IC50 for this compound: "C=C1CC[C@H]2C(C)(C)CCC[C@]2(C)[C@H]1CC/C(C)=C/C(=O)NCC(=O)O"
A. > 120 µM
